method summary: qHTS for Inhibitors of binding or entry into cells for Lassa Virus; further: nearly all actives have a fitted effect of over 50% in size
test context: Lassa virus pseudotype entry inhibition, cell reporter; series mostly up to 37.9 µM
Screen size: about 300,000 compounds; about 3,700 (1.2%) were called active. About 20% were inconclusive and are not listed. The call rests on the fitted dose curve; tested in HEK293 cells. Shown is part of a subset that was picked to be rich in actives.
Bench note: report the call from class 1 = active, class 0 = inactive

compound	cat
CCOc1ccc(NC(=O)c2ncoc2-c2ccco2)cc1	class 0

Answer briefly: the call reported for CN1CCCC(OC(=O)COc2ccc(Br)cc2)C1 (stereo unspecified) in this assay.
class 0

Answer briefly: the call reported for `COc1cccc(N(CC(=O)N2CCc3ccccc3C2)S(C)(=O)=O)c1` in this assay.
class 0

Answer briefly: the call reported for `CCOC(=O)c1c(NC(=O)c2ccc(S(=O)(=O)N(CC)CC)cc2)sc2c1CCCCC2` in this assay.
class 0

Answer briefly: the call reported for `N=C1c2ccccc2-c2ccccc21` in this assay.
class 0

Answer briefly: the call reported for `CCN(C(=O)CSc1cccc[n+]1[O-])c1ccccc1` in this assay.
class 0

Answer briefly: the call reported for CC(=O)OC1CCC2(C)C(=CCC3C4CC(=O)N(O)C(=O)C4(C)CCC32)C1 (stereo unspecified) in this assay.
class 0

Answer briefly: the call reported for `Cc1ccc(/C=N/NC(=O)COc2ccccc2-c2ccccc2)cc1` in this assay.
class 1

Answer briefly: the call reported for `O=C(c1ccc(F)cc1)N1CCC(C(=O)N2CCN(S(=O)(=O)c3ccccc3Br)CC2)CC1` in this assay.
class 0

Answer briefly: the call reported for `CN(C)c1nc(NN)nc(Nc2ccc(F)cc2)n1` in this assay.
class 0
